Data origin: ChEMBL document CHEMBL4257544

System: HepG2
experimentNotes: Cytotoxicity against human HepG2 cells after 48 hrs by MTT assay
Assay type: functional, cell-based
appliedConditions: HepG2, 48 h
quantity: IC50 (µM)

[
  {
    "compound": "CCCCN1C(=O)c2ccc3c4c(ccc(c24)C1=O)C(=O)N(CC1CC1)C3=O",
    "resultOperator": ">",
    "observedMeasurement": 50
  },
  {
    "compound": "CC(C)CN1C(=O)c2ccc3c4c(ccc(c24)C1=O)C(=O)N(CCCO)C3=O",
    "resultOperator": "=",
    "observedMeasurement": 4.14
  },
  {
    "compound": "O=C1c2ccc3c4c(ccc(c24)C(=O)N1CCCO)C(=O)N(CCCN1CCOCC1)C3=O",
    "resultOperator": "=",
    "observedMeasurement": 3.08
  },
  {
    "compound": "CCCCN1C(=O)c2ccc3c4c(ccc(c24)C1=O)C(=O)N(c1ncccn1)C3=O",
    "resultOperator": "=",
    "observedMeasurement": 17
  },
  {
    "compound": "CCCCN1C(=O)c2ccc3c4c(ccc(c24)C1=O)C(=O)N(C1CC1)C3=O",
    "resultOperator": ">",
    "observedMeasurement": 50
  },
  {
    "compound": "CCCCN1C(=O)c2ccc3c4c(ccc(c24)C1=O)C(=O)N(CCCN1CCOCC1)C3=O",
    "resultOperator": "=",
    "observedMeasurement": 30.6
  },
  {
    "compound": "CN(C)CCN1C(=O)c2cccc3cc(N)cc(c23)C1=O [AMONAFIDE]",
    "resultOperator": "=",
    "observedMeasurement": 9.45
  },
  {
    "compound": "CCCCN1C(=O)c2ccc3c4c(ccc(c24)C1=O)C(=O)N(c1cccnc1)C3=O",
    "resultOperator": "=",
    "observedMeasurement": 35.9
  }
]
